All figures here come from patent US9023857B2.

target: CDK2/cyclin E (Homo sapiens, UniProt P24941); test: CDK inhibition assay, CDK2/cyclin E
measureName: log10 of IC50 (log10 of the value in nM)
Units before log transform: nM; reported quantity: IC50; transform: log10.

Consider the reported log10 of IC50 for these molecules:
>  <molecule>
CC(C)C(CO)Nc1nc(NCc2ccccc2N)c2ncn(C)c2n1 (stereo not shown) [Compound 7]

>  <reportedValue>
1.00

$$$$
>  <molecule>
CC(O)CNc1nc(NCc2ccccc2N)c2ncn(C(C)C)c2n1 (stereo not shown) [Compound 104]

>  <reportedValue>
1.48

$$$$
>  <molecule>
Cn1cnc2c(NCc3ccccc3)nc(NC3CCCCC3N)nc21 (stereo not shown) [Compound A1140]

>  <reportedValue>
3.43

$$$$

Here's the next entry for you.
In: So what does the record say about log10 of IC50 for Nc1ccccc1CNc1nc(NC2CCC(N)CC2)nc2c1ncn2Cc1ccccc1 (stereo not shown) [Compound 231] ?
Out: 2.70
